Data origin, for the record: ChEMBL document CHEMBL1137430

Tested on: Plasmodium falciparum
methodDescription: Antimalarial activity against chloroquine-sensitive Plasmodium falciparum 3D7
Type: functional, organism-based
Measured pIC50 of individual entries
Just the number, please; pIC50 means minus log10 of the concentration in mol/L.

Worked cases, answers included:
Noted for CCCN(CCCCNc1ccnc2cc(Cl)ccc12)Cc1ccco1 : its pIC50 reads 8.51

Noted for CCCN(CCCCNc1ccnc2cc(Cl)ccc12)Cc1cc(F)ccc1OC : its pIC50 reads 8.72

Noted for CCCN(CCCCNc1ccnc2cc(Cl)ccc12)Cc1ccccc1O : its pIC50 reads 8.15

Noted for CCCN(CCCNc1ccnc2cc(C)ccc12)Cc1cc([N+](=O)[O-])ccc1O : its pIC50 reads 7.41

Noted for CCCN(CCCCNc1ccnc2cc(Cl)ccc12)Cc1cc(O)ccc1O : its pIC50 reads 8.66

Proceeding to the next compound to report its pIC50.
Noted for CCCN(CCCCNc1ccnc2cc(Cl)ccc12)Cc1cccc2c1OCO2 : its pIC50 reads 8.38

----------
Test system: Plasmodium falciparum
methodDescription: Antimalarial activity against multidrug-resistant Plasmodium falciparum W2
Type: functional, organism-based
Consider the cut-off 6 nM. If the recorded IC50 is strictly smaller, the label is 1.0; if not, the label is 0.0.

Problem: Check if IC50 falls below 6 nM for CCCN(CCCNc1ccnc2cc(C)ccc12)Cc1cc([N+](=O)[O-])ccc1O .
Solution: 0.0

Problem: Check if IC50 falls below 6 nM for CCCN(CCCNc1ccnc2cc(Cl)ccc12)Cc1cc(O)ccc1O .
Solution: 0.0

Problem: Check if IC50 falls below 6 nM for CCCN(CCCNc1ccnc2cc(Cl)ccc12)Cc1cccc(F)c1O .
Solution: 1.0

Problem: Check if IC50 falls below 6 nM for CCCN(CCCCNc1ccnc2cc(Cl)ccc12)Cc1cc(F)ccc1OC .
Solution: 1.0

Problem: Check if IC50 falls below 6 nM for CCCN(CCCNc1ccnc2cc(Cl)ccc12)Cc1ccco1 .
Solution: 0.0

Problem: Check if IC50 falls below 6 nM for CCCN(CCCNc1ccnc2cc(Cl)ccc12)Cc1ccccc1O .
Solution: 1.0

Problem: Check if IC50 falls below 6 nM for CCCN(CCCCNc1ccnc2cc(Cl)ccc12)Cc1cccc(OC)c1O .
Solution: 1.0

Problem: Check if IC50 falls below 6 nM for CCCN(CCCNc1ccnc2cc(Cl)ccc12)Cc1cccs1 .
Solution: 0.0

Continuing:
Problem: Check if IC50 falls below 6 nM for CCCN(CCCCNc1ccnc2cc(Cl)ccc12)Cc1cccc2c1OCO2 .
Solution: 0.0

Problem: Check if IC50 falls below 6 nM for CCCN(CCCCNc1ccnc2cc(Cl)ccc12)Cc1ccc(C)o1 .
Solution: 0.0

Problem: Check if IC50 falls below 6 nM for CCCN(CCCCNc1ccnc2cc(Cl)ccc12)Cc1cccc(F)c1O .
Solution: 1.0

----------
Measured IC50 of individual entries
Tested on: Plasmodium falciparum
methodDescription: Antimalarial activity against chloroquine-sensitive Plasmodium falciparum 3D7
Format: functional, organism-based
I only need the number, in nM, no unit after it.

Worked cases, answers included:
Recorded IC50 for CCCN(CCCCNc1ccnc2cc(Cl)ccc12)Cc1cc(OC(F)(F)F)ccc1O on Plasmodium falciparum was 2.4

Recorded IC50 for CCCN(CCCNc1ccnc2cc(Cl)ccc12)Cc1cccc(F)c1O on Plasmodium falciparum was 0.98

Proceeding to the next molecule to report its IC50.
Recorded IC50 for CCCN(CCCCNc1ccnc2cc(Cl)ccc12)Cc1cccs1 on Plasmodium falciparum was 7.2
